These entries and their values trace back to PubChem BioAssay AID1063.

# measurement.notes: Leishmania major promastigote growth inhibition, primary screen (AID 1063);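 also: promastigotes grown with compound for 44 hours at 28 °C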
# condition.notes: Leishmania major promastigotes, resazurin fluorescence viability; at 10 µM
Out of some 200,000 compounds screened, about 18,000 (9%) were called active. Rule as the data show it: active = inhibition above about 50%; inactive = the rest. The full list was thinned out, with actives kept by preference.
API: response.call in class 1 for active, class 0 for inactive

Examples with answers:
compound: c1ccc(CC2CCN(c3nc4ccccc4n4cnnc34)CC2)cc1
classification: class 1

compound: Cc1onc(C(=O)NN)c1C(=O)N1CCN(C(c2ccccc2)c2ccccc2)CC1
classification: class 0

compound: O=C(c1ccccc1)c1ccc2nc(N3CCCCC3)c3nncn3c2c1
classification: class 0

compound: Cc1[nH]n(-c2ccccc2)c(=O)c1/C=N/NC(=O)c1ccoc1C
classification: class 1

compound: Cc1cc(C)cc(C(=O)N(CCc2ccccc2)C2=CC3CCC(C2)N3C)c1 (stereo not drawn)
classification: class 0

compound: Cn1c(N)c(C(=O)COC(=O)c2ccccc2NCc2ccco2)c(=O)n(C)c1=O
classification: class 0

compound: Cc1[nH]n(-c2ccc(Cl)cc2)c(=O)c1/C=N/n1c(C)nc2ccccc2c1=O
classification: class 0

compound: CCc1nnc(NS(=O)(=O)c2ccc(NC(=S)NC(=O)c3cccs3)cc2)s1
classification: class 0

compound: Cc1csc(NC(=O)Nc2ccccc2[N+](=O)[O-])n1
classification: class 0

compound: CCCN(CC(=O)Nc1ccc(OC)c(OC)c1)CC(=O)Nc1ccc(F)c(F)c1F
classification: class 0

### Prompt Which outcome was assigned to "CC(C)NC(=O)c1ccc(Cl)cc1Cl" in this test?
### Response class 0

### Prompt Which outcome was assigned to "Cc1[nH]c2ccccc2c1SCC(=O)Nc1nccs1" in this test?
### Response class 0

### Prompt Which outcome was assigned to "Cc1ccc(N=Nc2c(C)[nH]n(-c3ccccc3)c2=O)cc1" in this test?
### Response class 0

### Prompt Which outcome was assigned to "O=C(N/N=C/c1ccc(OCc2ccccc2)cc1)c1ccc(O)cc1" in this test?
### Response class 0

### Prompt Which outcome was assigned to "COc1ccc(/C=N/NC(=O)c2ccccc2)cc1OS(=O)(=O)c1ccccc1" in this test?
### Response class 0

### Prompt Which outcome was assigned to "O=S(=O)(c1ccc2c(c1)OCCO2)N1CCc2ccccc21" in this test?
### Response class 0

### Prompt Which outcome was assigned to "COc1ccc(-c2nn3c(-c4ccccc4)nnc3s2)cc1OC" in this test?
### Response class 0

### Prompt Which outcome was assigned to "Cc1ncc([N+](=O)[O-])n1CCOC(=O)c1ccc(Br)cc1" in this test?
### Response class 0

### Prompt Which outcome was assigned to "Cc1cc(C)cc(NC(=O)N2CCCCCCC2)c1" in this test?
### Response class 0

### Prompt Which outcome was assigned to "Cc1ccc(N2NC(=O)/C(=C/C=C/c3ccco3)C2=O)cc1C" in this test?
### Response class 0

### Prompt Which outcome was assigned to "O=C(CCc1ccccc1)Nc1ccc(NC(=O)C2CCCCC2)nc1" in this test?
### Response class 0

### Prompt Which outcome was assigned to "CCOc1cccc(-c2nn3c(-c4ccccn4)nnc3s2)c1" in this test?
### Response class 0

### Prompt Which outcome was assigned to "COCCN(C(=S)Nc1ccccc1OC)C1CCN(C(C)C)CC1" in this test?
### Response class 0
